- Species: Rattus norvegicus
- experiment-notes: Displacement of [3H]strychnine from glycine receptor in Wistar rat spinal cord synaptosomal membranes
- Type: cell membranes
- condition-parameters: Membrane
attribute-measured: -Log KA
Give bare numbers.

Solved entries (count: 5):
CN1[C@@H]2CC[C@H]1C[C@H](NC(=O)c1ccccc1)C2 = 4.8
CN1[C@@H]2CC[C@H]1C[C@@H](NC(=O)c1cc(Cl)cc3c1OC(C)(C)C3)C2 = 6.57
CCc1ccc(C(=O)O[C@@H]2C[C@H]3CC[C@@H](C2)N3C)cc1 = 5.34
CN1[C@@H]2CC[C@H]1C[C@H](OC(=O)c1cccc([N+](=O)[O-])c1)C2 = 5.84
O=C(O[C@H]1C[C@H]2CC[C@@H](C1)N2)c1ccccc1 (stereo in doubt; 8) = 5.96

For every item below, please supply its -Log KA.
1. CC1(C)Cc2cc(Cl)cc(C(=O)O[C@H]3C[C@H]4CC[C@@H](C3)N4)c2O1
2. COc1cccc(C(=O)O[C@@H]2C[C@H]3CC[C@@H](C2)N3)c1

1: 7.74; 2: 8.11

Can you give me -Log KA for all of these, one by one?
1. COc1cccc(C(=O)O[C@@H]2C[C@H]3CC[C@@H](C2)N3C)c1
2. CN1[C@@H]2CC[C@H]1C[C@H](OC(=O)c1ccccc1)C2 (stereo in doubt; 2a)
3. O=C(O[C@H]1C[C@H]2CC[C@@H](C1)N2)c1ccccc1 (stereo in doubt; 4a)

1. 7.08
2. 6.39
3. 7.98

----------
- Organism: Rattus norvegicus
- experiment-notes: Displacement of [3H]strychnine from glycine receptor in Wistar rat spinal cord synaptosomal membranes
- Type: cell membranes
- condition-parameters: Membrane
Labelling: -Log KA reported below 6 becomes 1 (yes); at or above becomes 0 (no).

Here are 2 compounds together with their reported answers.
CN1[C@@H]2CC[C@H]1C[C@H](OC(=O)c1ccccc1)C2 (stereo in doubt; 7) = 1 (yes)
CN1[C@@H]2CC[C@H]1C[C@H](OC(=O)c1ccc([N+](=O)[O-])cc1)C2 = 1 (yes)

For this compound, is -Log KA lower than 6? O=C(O[C@@H]1C[C@H]2CC[C@@H](C1)N2)c1cccc(Cl)c1 0 (no)

Decide: -Log KA of Nc1cccc(C(=O)O[C@@H]2C[C@H]3CC[C@@H](C2)N3)c1 strictly below 6? 0 (no)
